Origin of the recorded values: patent US20130071854A1

Protein target, amino acids: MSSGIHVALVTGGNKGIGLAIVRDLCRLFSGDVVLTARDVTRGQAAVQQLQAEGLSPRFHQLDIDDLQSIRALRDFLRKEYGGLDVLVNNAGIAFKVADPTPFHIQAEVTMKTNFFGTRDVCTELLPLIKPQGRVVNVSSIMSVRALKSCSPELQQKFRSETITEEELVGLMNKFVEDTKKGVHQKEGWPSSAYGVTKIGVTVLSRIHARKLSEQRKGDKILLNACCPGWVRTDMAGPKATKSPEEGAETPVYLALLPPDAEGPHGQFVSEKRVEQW
observedProperty: Kd

> print(dat)
                                   molecule   result
1  Nc1ccccc1NC(=O)CCCCCCC(=O)Nc1ccccc1 [BML-210]  > 85 µM

Problem: Kd lookup needed for O=C(CCCCCN1C(=O)c2cccc3cccc(c23)C1=O)NO [scriptaid] , thanks.
Result: > 10 µM

Problem: Please give the result for O=C(CCCCCCC(=O)Nc1ccccc1)NO [SAHA, suberoylanilide hydroxamic acid] too.
Result: > 10 µM

Problem: Please give the result for Nc1ccccc1NC(=O)c1ccc(CNC(=O)OCc2cccnc2)cc1 [MS-275] too.
Result: > 300 µM

Problem: Please give the result for CC(=O)Nc1ccc(C(=O)Nc2ccccc2N)cc1 [tacedinaline] too.
Result: > 85 µM

Problem: Please give the result for CCCC(CCC)C(=O)O [valproate, valproic acid] too.
Result: > 10 µM

Problem: Please give the result for CN(C)Cc1c(C(=O)NCCOc2ccc(C(=O)NO)cc2)oc2ccccc12 [PCI-24781] too.
Result: > 10 µM

* * *

Tested on: MIER1
assay: Chemoproteomic binding profiling, K562 cell extract, SAHA/ITF2357 probe matrix (Kd app), ELSA (ELM-SANT) domain protein
Set-up: species or system human
recordedConditions: ELSA (ELM-SANT) domain proteins
pKd: −log10 of the molar value.
Would you please tag the item TRUE when its pKd is 4 or above, and FALSE when it is below?

Solved entries:
> print(dat)
                                   molecule  grouplabel
1  O=C(/C=C/c1ccc(CN(CCO)CCc2c[nH]c3ccccc23)cc1)NO [dacinostat]        TRUE
2  O=C(/C=C/c1cccc(S(=O)(=O)Nc2ccccc2)c1)NO [belinostat]        TRUE
3  Nc1ccccc1NC(=O)c1ccc(CNC(=O)OCc2cccnc2)cc1 [MS-275]       FALSE
4  CC(=O)Nc1ccc(C(=O)Nc2ccccc2N)cc1 [tacedinaline]       FALSE
5  CCCC(CCC)C(=O)O [valproate, valproic acid]       FALSE

Problem: Exam item: decide whether the reported pKd for CCCCOc1ccc(CC(=O)NO)cc1 [bufexamac] is at least 4.
Result: FALSE
